- METHOD_SUMMARY: Influence of the amount of NaCl on the distribution between oil phase and water phase (Example 5)
- Type: physicochemical
- EXPERIMENTAL_CONTEXT: NaCl 69.44 %
MEASURED_PROPERTY: Distribution in [%] between oil phase and water phase after condensation: Oil phase (%)

> print(dat)
                                    compound  result.number
 1    CC(=O)OCC(C)C [2-methylpropyl acetate]           98.6
 2             CCC/C=C/C=O [trans-2-hexenal]           83.3
 3             CCCCCCOC(C)=O [hexyl acetate]            100
 4          CCCC(CC=O)OCC (centres unmarked)           97.4
 5                                  CCCCCC=O            100
 6             CCOC(=O)CC [ethyl propionate]              0
 7                CC/C=C\CCO [cis-3-hexenol]           85.6
 8                               O=Cc1ccccc1           76.7
 9  CC/C=C\CCOC(C)=O [cis-3-hexenyl acetate]            100
10                                  CC(C)CCO           68.9
11              CCC/C=C/CO [trans-2-hexenol]           91.7
12                                    CCCCCO           79.8
13                               CCCCCC(=O)O             97
14              CC/C=C/CCO [trans-3-hexenol]           96.2

---

- METHOD_SUMMARY: Influence of the amount of NaCl on the distribution between oil phase and water phase (Example 5)
- Format: physicochemical
- EXPERIMENTAL_CONTEXT: NaCl 83.33 %
Overview of recorded Distribution in [%] between oil phase and water phase after condensation: Water phase for various compounds
MEASURED_PROPERTY: Distribution in [%] between oil phase and water phase after condensation: Water phase (%)

> print(dat)
                                    compound  unit.symbol  result.number
 1                               O=Cc1ccccc1            %           19.2
 2             CCC/C=C/C=O [trans-2-hexenal]            %           12.5
 3               CCCCOC(C)=O [butyl acetate]            %            1.4
 4                 CCOC(C)=O [ethyl acetate]            %           54.8
 5  CC/C=C\CCOC(C)=O [cis-3-hexenyl acetate]            %              0
 6                                  CCCCCC=O            %              0
 7                                 CCCCCCCCO            %              0
 8              CC/C=C/CCO [trans-3-hexenol]            %            2.7
 9                                  CCCCCCCO            %              0
10          CCCC(CC=O)OCC (stereo not shown)            %            1.5
11  CCC(C)COC(C)=O (stereo not shown) [2-methyl butyl acetate]            %            0.2
12                                  CC(C)CCO            %           17.9
13                CC/C=C\CCO [cis-3-hexenol]            %           10.8
14                                   CCCCCCO            %            1.8
15                               CCCCCC(=O)O            %            2.1
16   CC(=O)OCCc1ccccc1 [phenylethyl acetate]            %              0
17             CCCCCCOC(C)=O [hexyl acetate]            %              0
18    CC(=O)OCC(C)C [2-methylpropyl acetate]            %              1
19               CCC(C)CO (stereo not shown)            %           17.3
20  CCC/C=C/COC(C)=O [trans-2-hexenyl acetate]            %              0
21  CCOC(=O)C(C)CC (stereo not shown) [ethyl 2-methyl butyrate]            %              0
22              CCCC(=O)OCC [ethyl butyrate]            %            1.3
23                                    CCCCCO            %           15.4
24              CCC/C=C/CO [trans-2-hexenol]            %              6
25             CCOC(=O)CC [ethyl propionate]            %            100
